Catalogue of molecules with associated AUC
# Protocol Summary: AUC in Sprague-Dawley rats at 33 mg/kg, po
# Format: ADME, organism-based
# Design: dose 33 mg/kg, route po
# Run Parameters: rat, in vivo

Compound Structure String	AUC / ng·h/mL
O=C(NCCCCCNS(=O)(=O)c1ccc(Oc2ccccc2)cc1)P(=O)(O)O	6800
O=C(NCCCCCCNS(=O)(=O)c1ccc(Oc2ccccc2)cc1)P(=O)(O)O	3300

----------
# Experimental Target: UniProtKB P03956
# Sequence (P03956 whole entry): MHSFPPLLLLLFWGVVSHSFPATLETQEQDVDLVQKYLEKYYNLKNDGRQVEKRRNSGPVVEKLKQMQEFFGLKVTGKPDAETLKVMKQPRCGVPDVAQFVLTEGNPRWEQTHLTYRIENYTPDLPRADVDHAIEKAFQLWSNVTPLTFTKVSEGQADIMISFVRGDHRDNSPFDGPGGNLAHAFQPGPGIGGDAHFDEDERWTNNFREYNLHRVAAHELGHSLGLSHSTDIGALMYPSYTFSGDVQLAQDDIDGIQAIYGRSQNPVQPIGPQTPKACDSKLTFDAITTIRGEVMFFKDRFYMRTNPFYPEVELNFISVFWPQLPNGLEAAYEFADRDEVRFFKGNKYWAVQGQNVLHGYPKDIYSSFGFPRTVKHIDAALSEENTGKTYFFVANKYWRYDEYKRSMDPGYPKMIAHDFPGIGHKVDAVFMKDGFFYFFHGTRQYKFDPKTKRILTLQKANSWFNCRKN
# Protocol Summary: Inhibition of MMP-1 (unknown origin)
pKi: −log10 of the molar value.
Catalogue of compounds with associated pKi
Endpoint Label: pKi

Compound	Experimental Target	Endpoint Label	Inequality Symbol	Assay Value
C=CC[C@H](C(=O)NO)C(CC(C)C)C(=O)N[C@@H](Cc1ccccc1)C(=O)NC (some centres undefined)	UniProtKB P03956	pKi	=	8.10
O=C(C[C@@H](CSc1ccccc1)C(=O)O)c1ccc(-c2ccc(Cl)cc2)cc1	UniProtKB P03956	pKi	<	5.30
CC(=O)Nc1ccc(Oc2ccc(S(=O)(=O)CC3CS3)cc2)cc1 (centres undefined)	UniProtKB P03956	pKi	<	3.81
COc1ccc(-c2ccc(CN3C(C(=O)NO)CCS3(=O)=O)cc2)cc1 (centres undefined)	UniProtKB P03956	pKi	=	5.31
